B1: CHMP4C (parent)
chain: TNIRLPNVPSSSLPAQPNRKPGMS

Variants of: B1
Experiment: protein stability index of a GFP-peptide fusion (GPS, HEK-293T) (PSI 1-6); higher = more stable;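 also: lentivirally expressed fusions sorted by FACS into six bins by GFP to DsRed ratio, PSI derived from sequencing read proportions per bin multiplied by bin number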
Details: c terminus: a fixed tail appended
ENDPOINT: protein stability index
The reply should be a number, written without any unit.

The examples below pair each entry with its known result.
{"MUTATIONS": "N18P", "protein stability index": 4.58}
{"MUTATIONS": "P9A", "protein stability index": 4.62}
{"MUTATIONS": "T1Q", "protein stability index": 4.75}
{"MUTATIONS": "P14E", "protein stability index": 4.7}
{"MUTATIONS": "P17M", "protein stability index": 4.56}
{"MUTATIONS": "S24L", "protein stability index": 4.15}

stdin: What does the record list as protein stability index for `N7P` ?
stdout: 5.37

stdin: Give the measured protein stability index of `K20I` .
stdout: 3.61

stdin: Find the recorded protein stability index belonging to `S10P` and report it.
stdout: 4.39

stdin: What does the data say about its protein stability index? Entry: `N2R`
stdout: 4.08

stdin: I am curious: what protein stability index value has been reported for `S10R` ?
stdout: 4.06

stdin: Quick check: protein stability index of `R4I` ?
stdout: 3.37

stdin: For the variant shown here, `K20D` , give the reported protein stability index.
stdout: 4.44

stdin: Look up protein stability index: `K20H`
stdout: 4.4

stdin: Returns the measured protein stability index for the input variant. Input: `N7A`
stdout: 4.61

stdin: Name the recorded protein stability index for `A15H` .
stdout: 4.59
